From: PubChem BioAssay (NCATS)

Assay: Stat Signaling Pathway (AID 446);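 also: ME-180 cervical cancer cells given 40 pM IL-6 alongside compound; SIE-controlled beta-lactamase reporter measured as 460/530 nm FRET emission ratio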
Details: ME-180 (cervical carcinoma) SIE beta-lactamase reporter, IL-6 stimulated, 5 h; at 17.2 µM (top of the series) unless noted
Results filed as inconclusive are left out. Active and inactive are the calls of the source. Calls follow the shape of the dose curve; as a rule, active = well fitted curve in either direction with a large enough effect (not every such curve was filed as active); inconclusive = small, poorly fitted or top-dose-only effect, or another doubt; inactive = flat fitted curve, though single readings scatter.
Classes to choose from: 1 (active), 0 (inactive)

COMPOUND	ASSIGNED CATEGORY
COc1ccc(C2/C(=C(/O)c3cnn(-c4ccccc4)c3C)C(=O)C(=O)N2CCN(C)C)cc1OC (configuration not stated)	0

// outcome(item) with item = COc1ccccc1C1/C(=C(/O)c2ccc(C)cc2)C(=O)C(=O)N1Cc1ccco1 (configuration not stated)
0

Please share the test call associated with O=c1c2ccccc2[nH]c(=S)n1CCN1CCC(=C(c2ccc(F)cc2)c2ccc(F)cc2)CC1 .
0

How did this test come out for c1nc(NC2CCCCC2)c2[nH]cnc2n1 ?
0

====

Experiment: Cellular Toxicity (caspase-3) Jurkat (AID 655);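 also: cells exposed to compound for 16 h at 37 °C before reading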
Conditions: Jurkat caspase-3 activation, luminescence
Results filed as inconclusive are left out. Active and inactive are the calls of the source. Calls come from the whole dose curve; as a rule, active = well fitted activation curve with a large enough effect; inconclusive = small, poorly fitted or top-dose-only effect; inactive = flat fitted curve, though single readings scatter.
Pick one and only one: active, inactive

MOLECULAR STRING	ASSIGNED CATEGORY
C=C(C)c1ccccc1	inactive
CCCCCCCC[N+](CCCCCCCC)(CCCCCCCC)CCCCCCCC	active
CC(=O)Nc1ccc(C(=O)CCl)cc1	inactive
Cc1cccc(O)c1C	inactive
O=Cc1ccc(Cl)c(Cl)c1	inactive
CCCCCC/C(C=O)=C\c1ccccc1	inactive
Oc1ccc2cc(SSc3ccc4cc(O)ccc4c3)ccc2c1	inactive
O=C(OCC(COC(=O)c1ccccc1)(COC(=O)c1ccccc1)COC(=O)c1ccccc1)c1ccccc1	inactive

Status in this test for Cc1ccc(S(=O)(=O)Oc2ccc(N=Nc3ccc(-c4ccc(N=Nc5c(O)ccc6cc(S(=O)(=O)O)cc(S(=O)(=O)O)c56)c(C)c4)cc3C)cc2)cc1 ?
inactive

State the result this test recorded for CC/C(=C(\c1ccccc1)c1ccc(OCCN(C)C)cc1)c1ccc(O)cc1 .
active

# outcome recorded in this test, key = O=C1OC2(c3cc(Br)c(O)c(Br)c3Oc3c2cc(Br)c(O)c3Br)c2c(Cl)c(Cl)c(Cl)c(Cl)c21
inactive

====

Test system: CP256
Test: qHTS profiling for inhibitors of Plasmodium falciparum proliferation (AID 504749); also: nearly all actives have a fitted effect of over 60% in size; also: potency is read from the fitted curve at half-maximal effect
Conditions: P. falciparum in erythrocytes, SYBR Green DNA, 72 h; series mostly up to 28.7 µM
Results filed as inconclusive are left out. Active and inactive are the calls of the source. Calls follow the shape of the dose curve; as a rule, active = well fitted inhibition curve with a large enough effect; inconclusive = small, poorly fitted or top-dose-only effect; inactive = flat fitted curve, though single readings scatter.
PROPERTY: Potency

COMPOUND	Potency
CC1(C(=O)O)CCC2(C)CCC3(C)C(=CC(=O)C4C5(C)CCC(O)C(C)(C)C5CCC43C)C2C1 (stereo not given)	inactive
O=C1C(I)=CC(=C(c2cc(I)c(O)c(I)c2)c2ccccc2C(=O)O)C=C1I	inactive
CCCCC(=O)OCC(=O)[C@]1(O)Cc2c(O)c3c(c(O)c2[C@H](OC2CC(NC(=O)C(F)(F)F)C(O)C(C)O2)C1)C(=O)c1c(OC)cccc1C3=O (stereo not given in full)	2 µM (active)
CC(=O)N1CC(O)CC1C(=O)O (stereo not given)	inactive

Okay, next one:
Request: Potency, test system CP256, entry CN1[C@H]2CC(OC(=O)[C@H](CO)c3ccccc3)C[C@H]1[C@H]1O[C@H]12 (stereo not given in full)
inactive

====

Test system: CP211
Assay: qHTS profiling for inhibitors of Plasmodium falciparum proliferation (AID 504749); also: nearly all actives have a fitted effect of over 60% in size
Conditions: P. falciparum in erythrocytes, SYBR Green DNA, 72 h; series mostly up to 28.7 µM
Results filed as inconclusive are left out. Active and inactive are the calls of the source. The call rests on the fitted dose curve; in most records, active means well fitted inhibition curve with a large enough effect; inconclusive means small, poorly fitted or top-dose-only effect; inactive means flat fitted curve, though single readings scatter.
Just give me one of these, please: active, inactive

Test call for this molecule, please: C[C@H]1OC(OC2C(O)[C@@H](O)C(OC3C(O)[C@@H](O)C(O)O[C@@H]3CO)O[C@@H]2CO)[C@H](O)C(O)C1N[C@H]1C=C(CO)[C@@H](O)[C@H](O)C1O (stereo partly drawn)
inactive

Lab log entry: NC(=O)NC(CCC(=O)O)C(=O)O (stereo not drawn) — outcome as called in the assay?
inactive

Field: outcome | Entry: OCCN1CC(O)C(O)C(O)C1CO (stereo not drawn)
inactive

For CCC(=O)OC1C(N(C)C)CC(C)O[C@H]1O[C@H]1[C@H](C)[C@@H](O[C@H]2CC(OC)[C@@H](O)C(C)O2)[C@H](C)C(=O)O[C@@H](CC)[C@](C)(O)[C@@H](O)[C@H](C)C(=O)[C@@H](C)C[C@]1(C)O (stereo partly drawn) , what call appears in the results of this test?
inactive

Identify the outcome logged in this assay for the molecule shown: COc1ccc2cc1Oc1cc3c(cc1OC)CC[N+](C)(C)C3Cc1ccc(cc1)Oc1c(OC)c(OC)cc3c1C(C2)[N+](C)(C)CC3 (stereo not drawn)
inactive

What call does the record list for OCCOC[C@H]1O[C@H](OCCO)[C@H](OCCO)[C@@H](OCCO)[C@@H]1OCCO (tested in a mixture with another compound) ?
inactive

Name the outcome recorded for CC(=O)C1(O)Cc2c(O)c3c(c(O)c2C(OC2CC(N)C(O)C(C)O2)C1)C(=O)c1c(O)cccc1C3=O (stereo not drawn) in the assay.
active

Fill in: this test's call for CCCC[C@H](O)c1ccccc1 is ___
inactive

====

Tested on: HB3
Assay: qHTS profiling for inhibitors of Plasmodium falciparum proliferation (AID 504749); also: nearly all actives have a fitted effect of over 60% in size
Conditions: P. falciparum in erythrocytes, SYBR Green DNA, 72 h; series mostly up to 28.7 µM
Results filed as inconclusive are left out. The source made the active and inactive calls. Calls come from the whole dose curve; as a rule, active = well fitted inhibition curve with a large enough effect; inconclusive = small, poorly fitted or top-dose-only effect; inactive = flat fitted curve, though single readings scatter.
Your answer must be one of the following: True for active, False for inactive

COMPOUND	TARGET SYSTEM	ASSIGNED CATEGORY
CC(C)C[C@@H](NC(=O)[C@@H](Cc1ccccc1)NC(=O)c1cnccn1)B(O)O	HB3	True

GET /call?item= COC(=O)C1[C@@H](OC)C(OC(=O)COc2ccc(OC)cc2)C[C@@H]2CN3CCc4c([nH]c5cc(OC)ccc45)[C@H]3C[C@H]12 (stereo partly drawn) returns the recorded outcome of this test.
True

What did the test return for CC(C)C(=O)OCC(=O)[C@@]12OC(C3CCCCC3)O[C@@H]1CC1C3CCC4=CC(=O)C=C[C@]4(C)C3[C@@H](O)C[C@@]12C (stereo partly drawn) ?
True

Check the results log: what was the call for CN1[C@H]2CC(OC(=O)[C@H](CO)c3ccccc3)C[C@H]1[C@H]1O[C@H]12 (stereo partly drawn) ?
False

Please let me know the test result on file for C/C=C1/NN(CCCN2CCN(c3cccc(Cl)c3)CC2)C(=O)N1CCOc1ccccc1 .
False

For this compound, state the assay outcome: CC(C)(C)C(=O)OCC(=O)C1CCC2C3CCC4=CC(=O)CCC4(C)C3CCC12C (stereo not drawn)
False

GET /call?item= Cc1c(C)c2c(c(C)c1O)CCC(C)(CCCC(C)CCCC(C)CCCC(C)C)O2 (stereo not drawn) returns the recorded outcome of this test.
False

Could you kindly confirm the outcome this assay logged for CNC(=O)C(N)CSC(C)C1=C(C)c2cc3[n-]c(cc4nc(cc5[n-]c(cc1n2)c(C)c5CCC(=O)O)C(CCC(=O)O)=C4C)c(C)c3C(C)SCC(N)C(=O)NC.[Fe+2] (stereo not drawn) ?
False

====

Test: qHTS for Inhibitors of Plasmodium falciparum (GB4) proliferation (AID 504315); also: nearly all actives have a fitted effect of over 50% in size
Conditions: P. falciparum GB4 in erythrocytes, SYBR Green DNA, 72 h; series mostly up to 6.7 µM
Records with an inconclusive call do not appear. Active and inactive are the calls of the source. Calls follow the shape of the dose curve; as a rule, active = well fitted inhibition curve with a large enough effect; inconclusive = small, poorly fitted or top-dose-only effect, or effect the other way; inactive = flat fitted curve, though single readings scatter.
Just give me one of these, please: t (active), f (inactive)

COMPOUND	ASSIGNED CATEGORY
COC(=O)CCC(=O)OC1(C)C(=O)C2=CN(CC3CC3)C(c3ccc(OC)cc3)=CC2=C(Br)C1=O (stereo unspecified)	f
C=C(C(C)=O)C(O)C=Cc1ccco1 (stereo unspecified)	f

Record request — test call for Fc1ccccc1-c1nc(-c2ccccc2)oc1NC1CCCCC1
f

Assay outcome for CCCCc1nc2c(c3c1C[C@H](C)OC3)CN(C(=O)N[C@H](C(=O)OC)C(C)C)CC2 : what was it?
f

Recorded test call requested for CC1(OC(=O)CCc2ccccc2)C(=O)C=C2C=C(c3ccc(C#N)cc3)N(C3CC3)C=C2C1=O (stereo unspecified)
f

Can you look up the reported call for COC(=O)C1=C(C(=O)OC)[C@@H]2N(C)c3ccccc3[C@@]23C[C@@H](C(=O)OC)N(S(=O)(=O)c2ccc(C(F)(F)F)cc2)C3=N1 for me?
t

Call for entry COCCN1C(=O)N[C@@H](c2cccc(F)c2)C(C(C)=O)=C1C :
f

====

Test: Cell Viability - LYMP2-021 (AID 974);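 also: compound exposure lasts 24 hours at 37 °C; nearly all actives have a fitted effect of over 55% in size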
Details: LYMP2-021 lymphoblastoid cells viability; series mostly up to 92.2 µM
Text: NIH Chemical Genomics Center [NCGC] NIH Molecular Libraries Screening Centers Network [MLSCN] National Institutes of Environmental Health Sciences [NIEHS] National Toxicology Program [NTP] We have developed a 1536-well cell-based assay for quantitative high throughput screening (qHTS) against a number of cell lines to determine in vitro cytotoxicity of small molecules. […] 8. Detection; Luminescence; Viewlux plate reader […]
Inconclusive results are not listed. Activity calls are given as the source filed them. Calls come from the whole dose curve; as a rule, active = well fitted cell-killing curve with a large enough effect; inconclusive = small, poorly fitted or top-dose-only effect; inactive = flat fitted curve, though single readings scatter.
Your reply should match one of these outcome classes. class 1 for active, class 0 for inactive

// below: answered compounds
COMPOUND	ASSIGNED CATEGORY
CCCCCC/C(C=O)=C\c1ccccc1	class 0
O=Cc1ccc(Cl)c(Cl)c1	class 0

What outcome does the record of this test show for Cc1cccc(O)c1C ?
class 0

What was the test verdict on O=C(OCC(COC(=O)c1ccccc1)(COC(=O)c1ccccc1)COC(=O)c1ccccc1)c1ccccc1 ?
class 0

Dear all, I need the recorded test outcome for O=C=Nc1ccc(Cc2ccc(N=C=O)cc2)cc1 , thank you.
class 0

Tell me the recorded outcome of this test for CN1[C@H]2CC(OC(=O)[C@H](CO)c3ccccc3)C[C@H]1[C@H]1O[C@H]12 (some centres undefined) .
class 0

Tell me the recorded outcome of this test for Cc1cc(Nc2ccc(O)cc2)ccc1N .
class 1

Could you check what this test reported for C/C=C1\C(=O)C[C@H]2[C@@H]3CCC4=CC(=O)CC[C@]4(C)[C@H]3CC[C@]12C ?
class 0

// outcome(item) with item = c1ccc2c(c1)-c1cccc3c1c-2cc1ccccc13
class 0

How was CNc1ccc(O)cc1 classified in this test?
class 1

Tell me the assay call for O=C1OC2(c3cc(Br)c(O)c(Br)c3Oc3c2cc(Br)c(O)c3Br)c2c(Cl)c(Cl)c(Cl)c(Cl)c21 please.
class 0

Each compound tested received a call. Report the one for c1ccc2c(c1)ccc1cc3c(ccc4ccccc43)cc12 .
class 0

Look up the recorded call for CCCCCCCC[N+](CCCCCCCC)(CCCCCCCC)CCCCCCCC in this test.
class 1

Dear all, I need the recorded test outcome for Nc1ccc2cc3ccccc3cc2c1 , thank you.
class 0
